Where do these numbers come from? They come from PubChem BioAssay.

Measured z-score accompanies every entry in the list below.
experiment: basal RPMI8226 viability, no added stimulus, profiling panel, cell-based, calcein-AM fluorescence, 48 h, PK04 Diversity Set (AID 1166); conditions: RPMI8226 myeloma viability, higher = more signal;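 also: cells grown under basal conditions without added stimulus; test concentration not given here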

{"molecule": "C=CCC(OC(C)=O)[C@@H]1[C@@H](N(Cc2ccc(-c3ccccc3)cc2)C(=O)c2ccc(-c3ccccc3)cc2)c2cc(OCCCO)ccc2N1C(=O)Cc1ccc2ccccc2c1 (stereo partly specified)", "z-score": -0.806}
{"molecule": "O=C(NCCN1CCOCC1)[C@@H]1c2ccccc2C(=O)N(C2CCCCC2)[C@H]1c1ccc(CO)cc1", "z-score": -1.03}
{"molecule": "CCCC[C@@H]1C[C@H]1[C@@H](NC(=O)c1ccccc1)c1ccc(C(=O)OC)cc1", "z-score": -2.68}
{"molecule": "O=C1O[C@@H](c2ccccc2)[C@@H](c2ccccc2)N2[C@@H](c3ccccc3OCCO)[C@]3(C(=O)Nc4ccccc43)[C@@H](C(=O)Nc3nc4ccccc4s3)[C@H]12", "z-score": -4.44}
{"molecule": "O=C1C2C=CC(C(O)Cc3ccccc3)N(n3cnnc3)C2C(=O)N1Cc1ccccc1 (stereo unspecified)", "z-score": -1.11}
{"molecule": "COc1cc2c(cc1OC)CN(C(=O)[C@H]1[C@@H]3C(=O)O[C@@H](c4ccccc4)[C@@H](c4ccccc4)N3[C@@H](c3ccc(O)cc3)[C@]13C(=O)Nc1ccc(C#CCCO)cc13)CC2", "z-score": -1.46}
